# test: melting temperature; fluorescence melt of hairpins on a sequencing array, two-state fit, raised by 9.35 °C to match UV melts
# experimentalConditions: sodium 0.088 M
Below: a set of entries, each annotated with reported Tm.

[
  {
    "sequenceData": "GCAAGCGGAAACGCCTGC (((.(((....))).)))",
    "Tm [°C]": 54.2
  },
  {
    "sequenceData": "GGACCGGCGAAAGCCTCC (((..(((....))))))",
    "Tm [°C]": 27.5
  },
  {
    "sequenceData": "GTCGAACGAAAGTTAGAC (((.(((....))).)))",
    "Tm [°C]": 52.6
  },
  {
    "sequenceData": "GCTTCCGGAAACGGAGGC ((.((((....)))).))",
    "Tm [°C]": 54.6
  },
  {
    "sequenceData": "GTCAAGGGAAACCTTGAC (((((((....)))))))",
    "Tm [°C]": 58
  },
  {
    "sequenceData": "GACAGTGGAAACGTTGTC ((((..(....)..))))",
    "Tm [°C]": 36.2
  }
]
